IC50 for assorted compounds
- STUDY_TARGET: Topoisomerase IV (Staphylococcus aureus, UniProt P0C1S7+P0C1U9)
- Sequence (P0C1U9 whole entry): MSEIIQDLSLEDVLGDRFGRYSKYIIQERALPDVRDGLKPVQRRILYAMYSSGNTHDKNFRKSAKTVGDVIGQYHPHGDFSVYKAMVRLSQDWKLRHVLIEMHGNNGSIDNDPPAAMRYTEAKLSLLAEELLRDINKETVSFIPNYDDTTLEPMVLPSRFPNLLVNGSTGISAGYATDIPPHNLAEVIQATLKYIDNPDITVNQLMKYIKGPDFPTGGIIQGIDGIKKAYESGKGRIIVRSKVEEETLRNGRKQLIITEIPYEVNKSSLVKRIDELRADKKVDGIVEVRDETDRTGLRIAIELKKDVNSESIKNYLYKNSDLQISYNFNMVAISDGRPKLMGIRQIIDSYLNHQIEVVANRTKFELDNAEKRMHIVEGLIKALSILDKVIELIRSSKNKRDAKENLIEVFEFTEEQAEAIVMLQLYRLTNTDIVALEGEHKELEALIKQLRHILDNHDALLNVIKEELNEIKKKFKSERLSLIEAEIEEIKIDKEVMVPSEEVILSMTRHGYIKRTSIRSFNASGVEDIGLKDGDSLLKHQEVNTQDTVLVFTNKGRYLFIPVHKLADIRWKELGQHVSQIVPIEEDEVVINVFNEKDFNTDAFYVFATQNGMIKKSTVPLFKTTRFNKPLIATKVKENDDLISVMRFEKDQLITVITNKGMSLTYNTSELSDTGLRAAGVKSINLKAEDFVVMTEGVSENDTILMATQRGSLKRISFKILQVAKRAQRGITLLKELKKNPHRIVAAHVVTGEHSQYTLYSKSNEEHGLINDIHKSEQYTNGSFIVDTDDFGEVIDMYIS
- Sequence (P0C1S7 whole entry): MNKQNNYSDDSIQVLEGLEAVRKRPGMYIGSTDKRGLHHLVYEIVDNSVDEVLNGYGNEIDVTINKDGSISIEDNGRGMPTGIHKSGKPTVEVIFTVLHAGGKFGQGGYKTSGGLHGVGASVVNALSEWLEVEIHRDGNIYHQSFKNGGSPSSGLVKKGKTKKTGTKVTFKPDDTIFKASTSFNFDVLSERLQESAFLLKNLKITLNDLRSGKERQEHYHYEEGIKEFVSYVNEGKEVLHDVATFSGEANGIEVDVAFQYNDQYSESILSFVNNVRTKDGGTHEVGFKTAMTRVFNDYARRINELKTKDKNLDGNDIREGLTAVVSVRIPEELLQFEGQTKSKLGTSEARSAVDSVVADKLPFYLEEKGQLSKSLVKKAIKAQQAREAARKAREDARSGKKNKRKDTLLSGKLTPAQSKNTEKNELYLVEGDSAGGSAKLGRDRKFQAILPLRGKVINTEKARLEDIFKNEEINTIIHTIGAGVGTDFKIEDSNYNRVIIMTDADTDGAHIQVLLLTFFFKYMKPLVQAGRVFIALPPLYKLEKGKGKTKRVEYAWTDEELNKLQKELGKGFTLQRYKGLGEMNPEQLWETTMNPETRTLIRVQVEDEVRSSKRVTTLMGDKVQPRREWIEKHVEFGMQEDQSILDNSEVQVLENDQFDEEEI
- ASSAY_NOTES: Inhibition of Staphylococcus aureus DNA topoisomerase 4 relaxation activity measured for 30 mins

INSERT INTO assay_data (compound, observed_result) VALUES
  ('COc1ccc2nccc(C(O)C[C@H]3CC[C@H](NCc4cc(F)c(Br)c(F)c4)CC3)c2n1 (some centres not stated)', '1.56 µM'),
  ('COc1ccc2nccc(CCN3CCC(NC(=O)c4cc(F)c(Cl)c(F)c4)CC3)c2n1', '0.177 µM'),
  ('COc1ccc2nccc(OC[C@@H]3CC[C@@H](NCc4cc(F)c(Br)c(F)c4)CO3)c2n1', '> 100 µM');

The reported IC50 of the compound COc1ccc2nccc(OC[C@H]3CC[C@H](NC(=O)c4cc(F)c(Cl)c(F)c4)CC3)c2n1 was > 100 µM

* * *

- System: Pseudomonas aeruginosa
- ASSAY_NOTES: Antimicrobial activity against Pseudomonas aeruginosa RDK 184 assessed as reduction in bacterial growth incubated for 20 hrs by broth microdilution analysis
- Format: functional
Entries and their measured MIC follow.
Use µM as the unit, but write only the number.

Summary for this molecule, COc1ccc2nccc(C(O)C[C@H]3CC[C@H](NCc4cc(F)c(Br)c(F)c4)CC3)c2n1 (some centres undefined) : MIC is 31.6

* * *

Listed below: selectivity ratio values for each entry.
- System: hERG
- ASSAY_NOTES: Selectivity index, ratio of IC50 for inhibition of hERG fluorescence polarization assay to MIC for antimicrobial activity against multidrug-resisitant Staphylococcus aureus assessed as reduction in bacterial growth
- Assay type: toxicity
- MEASUREMENT_CONDITIONS: human; read-out: Selectivity Index
Lab note: write the figure by itself, no unit.

INSERT INTO results (smiles_structure, observation_type, observed_result) VALUES
  ('COc1ccc2nccc(OC[C@H]3CC[C@H](NCc4cc(F)c(Br)c(F)c4)CC3)c2n1', 'selectivity ratio', 73.5),
  ('COc1ccc2nccc(OC[C@@H]3CC[C@@H](NCc4cc(F)c(Br)c(F)c4)CO3)c2n1', 'selectivity ratio', 119);

Read the next record carefully.
response.value for COc1ccc2nccc(CCN3CCC(NC(=O)c4cc(F)c(Cl)c(F)c4)CC3)c2n1 (field: selectivity ratio) = 0.656

* * *

- Tested on: hERG
- ASSAY_NOTES: Selectivity index, ratio of IC50 for inhibition of hERG fluorescence polarization assay to MIC for antimicrobial activity against Staphylococcus aureus ATCC 29213 assessed as reduction in bacterial growth
- Format: toxicity
- MEASUREMENT_CONDITIONS: human; read-out: Selectivity Index
OBSERVATION_TYPE: selectivity ratio
Write no unit; give the number alone.

Observe how each entry below is paired with its result.
INSERT INTO measurements (molecule, observation_type, observed_result) VALUES
  ('COc1ccc2nccc(OC[C@H]3CC[C@H](NCc4cc(F)c(Br)c(F)c4)CC3)c2n1', 'selectivity ratio', 73.5),
  ('COc1ccc2nccc(CCN3CCC(NC(=O)c4cc(F)c(Cl)c(F)c4)CC3)c2n1', 'selectivity ratio', 1.3),
  ('COc1ccc2nccc(C(O)C[C@H]3CC[C@H](NCc4cc(F)c(Br)c(F)c4)CC3)c2n1 (some centres undefined)', 'selectivity ratio', 131),
  ('COc1ccc2nccc(OC[C@@H]3CC[C@@H](NCc4cc(F)c(Br)c(F)c4)CO3)c2n1', 'selectivity ratio', 460);

Next item in the queue.
// sample COc1ccc2nccc(CCN3CCC(NC(=O)c4cc(F)c(Br)c(F)c4)CC3)c2n1 , its selectivity ratio was 1.99
